Test system: LPS-induced TNF-α production
Format: cell-based
CONDITION_DESCRIPTION: Table 2A, compound 10 μg/ml
Non-standard residues stand in square brackets, D forms with d. Residues, ends and D or L forms follow the SMILES beside them. d(β3hF) = N[C@@H](CC(=O)O)Cc1ccccc1; β3hF = N[C@H](CC(=O)O)Cc1ccccc1
Rule: T for % inhibition vs. DMSO not less than 20%, F for anything less.

>  <MOLECULE>
O=C1C[C@H](Cc2ccccc2)NC(=O)[C@@H]2CCCN2C(=O)[C@@H]2CCCN2C(=O)[C@H](Cc2ccccc2)N1 [I-A] (cyclo(FPP[β3hF]))

>  <GROUP>
F

$$$$
>  <MOLECULE>
O=C1C[C@H](Cc2ccccc2)NC(=O)[C@@H]2CCCN2C(=O)[C@@H]2CCCN2C(=O)[C@@H](Cc2ccccc2)N1 [I-D] (cyclo(PP[β3hF][dF]))

>  <GROUP>
T

$$$$
>  <MOLECULE>
O=C1C[C@@H](Cc2ccccc2)NC(=O)[C@@H]2CCCN2C(=O)[C@@H]2CCCN2C(=O)[C@H](Cc2ccccc2)N1 [I-G] (cyclo(FPP[d(β3hF)]))

>  <GROUP>
T

$$$$
>  <MOLECULE>
O=C1C[C@H](Cc2ccccc2)NC(=O)[C@@H]2CCCN2C(=O)[C@H]2CCCN2C(=O)[C@H](Cc2ccccc2)N1 [I-F] (cyclo([dP]P[β3hF]F))

>  <GROUP>
T

$$$$
>  <MOLECULE>
O=C1C[C@H](Cc2ccccc2)NC(=O)[C@H]2CCCN2C(=O)[C@H]2CCCN2C(=O)[C@@H](Cc2ccccc2)N1 [I-E] (cyclo([dF][dP][dP][β3hF]))

>  <GROUP>
T

$$$$
>  <MOLECULE>
O=C1C[C@@H](Cc2ccccc2)NC(=O)[C@H]2CCCN2C(=O)[C@H]2CCCN2C(=O)[C@@H](Cc2ccccc2)N1 [I-J] (cyclo([d(β3hF)][dF][dP][dP]))

>  <GROUP>
F

$$$$
>  <MOLECULE>
O=C1C[C@H](Cc2ccccc2)NC(=O)[C@H]2CCCN2C(=O)[C@@H]2CCCN2C(=O)[C@H](Cc2ccccc2)N1 [I-H] (cyclo(FP[dP][β3hF]))

>  <GROUP>
F

$$$$
